The measured values listed here are drawn from ChEMBL document CHEMBL4321836.

measurement description: Plasma concentration in female rat at 12.5 mg/kg, po administered once daily for 8 days and measured on day 8
Type: ADME, organism-based
measured property: concentration at 192 h (µM)

[A] O=C(Nc1ccc(Oc2ccc(F)cc2)cc1)N1CCc2ncccc2[C@@H]1c1ccc(Cl)cc1
[B] O=C(Nc1cnc(Oc2ccc(F)cc2)nc1)N1CCc2ncccc2[C@@H]1c1ccc(F)cc1
Enquiry: Lower value for measured concentration at 192 h? Options: A , B Your answer should be the label of the entry you select.
Return: A
(A: 7 µM, B: 34 µM)

###

Attribute: pIC50
experimental system: Cytochrome P450 3A4 (Homo sapiens, UniProt P08684)
Sequence (P08684 whole entry): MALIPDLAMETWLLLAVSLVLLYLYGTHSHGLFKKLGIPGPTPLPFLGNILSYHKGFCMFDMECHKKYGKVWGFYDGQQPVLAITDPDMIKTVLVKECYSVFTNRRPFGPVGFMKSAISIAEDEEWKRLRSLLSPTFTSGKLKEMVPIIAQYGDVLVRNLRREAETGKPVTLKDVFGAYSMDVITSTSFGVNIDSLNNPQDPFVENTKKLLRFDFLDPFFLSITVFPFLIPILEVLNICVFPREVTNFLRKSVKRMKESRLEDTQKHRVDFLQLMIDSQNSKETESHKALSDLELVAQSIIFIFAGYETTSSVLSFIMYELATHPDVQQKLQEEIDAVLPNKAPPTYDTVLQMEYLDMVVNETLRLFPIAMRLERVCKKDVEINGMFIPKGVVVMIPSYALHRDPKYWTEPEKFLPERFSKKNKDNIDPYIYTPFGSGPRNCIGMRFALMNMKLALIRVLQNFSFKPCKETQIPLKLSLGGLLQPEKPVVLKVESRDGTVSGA
measurement description: Inhibition of CYP3A4 in human liver microsomes using midazolam as substrate treated prior to substrate addition by LC-MS/MS analysis
Format: ADME
pIC50: −log10 of the molar value.

Enquiry: Dear colleague, I am looking for the recorded pIC50 of the following compound: O=C(Nc1cnc(Oc2ccc(F)cc2)nc1)N1CCc2ncccc2[C@@H]1c1ccc(F)cc1 [BAY-899]
Return: < 4.70

Kindly review the next compound as well.
Enquiry: What value of pIC50 has been reported for the following compound? O=C(Nc1ccc(Oc2ccc(F)cc2)cc1)N1CCc2ncccc2[C@@H]1c1ccc(Cl)cc1
Return: < 4.70

###

experimental system: UniProtKB P10635
Sequence (P10635 whole entry): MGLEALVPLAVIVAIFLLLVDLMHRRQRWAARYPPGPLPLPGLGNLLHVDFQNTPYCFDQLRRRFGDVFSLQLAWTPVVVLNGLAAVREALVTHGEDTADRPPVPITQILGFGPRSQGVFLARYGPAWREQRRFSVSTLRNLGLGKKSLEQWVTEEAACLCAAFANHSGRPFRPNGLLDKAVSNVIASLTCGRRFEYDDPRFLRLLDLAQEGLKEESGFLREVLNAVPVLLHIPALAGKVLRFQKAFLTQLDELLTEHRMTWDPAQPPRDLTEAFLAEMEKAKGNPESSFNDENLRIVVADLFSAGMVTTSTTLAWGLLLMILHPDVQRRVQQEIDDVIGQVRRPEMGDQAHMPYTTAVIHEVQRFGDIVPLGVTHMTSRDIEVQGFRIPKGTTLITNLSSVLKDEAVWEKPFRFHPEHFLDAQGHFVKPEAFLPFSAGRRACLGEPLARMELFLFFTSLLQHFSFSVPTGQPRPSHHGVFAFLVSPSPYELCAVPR
pIC50: −log10 of the molar value.
measured property: pIC50

Enquiry: Form: Entry = O=C(Nc1ccc(Oc2ccc(F)cc2)cc1)N1CCc2ncccc2[C@@H]1c1ccc(Cl)cc1 | System = UniProtKB P10635 | pIC50 = ____
Return: < 4.70

###

experimental system: Cytochrome P450 1A2 (Homo sapiens)
Sequence (P05177 whole entry): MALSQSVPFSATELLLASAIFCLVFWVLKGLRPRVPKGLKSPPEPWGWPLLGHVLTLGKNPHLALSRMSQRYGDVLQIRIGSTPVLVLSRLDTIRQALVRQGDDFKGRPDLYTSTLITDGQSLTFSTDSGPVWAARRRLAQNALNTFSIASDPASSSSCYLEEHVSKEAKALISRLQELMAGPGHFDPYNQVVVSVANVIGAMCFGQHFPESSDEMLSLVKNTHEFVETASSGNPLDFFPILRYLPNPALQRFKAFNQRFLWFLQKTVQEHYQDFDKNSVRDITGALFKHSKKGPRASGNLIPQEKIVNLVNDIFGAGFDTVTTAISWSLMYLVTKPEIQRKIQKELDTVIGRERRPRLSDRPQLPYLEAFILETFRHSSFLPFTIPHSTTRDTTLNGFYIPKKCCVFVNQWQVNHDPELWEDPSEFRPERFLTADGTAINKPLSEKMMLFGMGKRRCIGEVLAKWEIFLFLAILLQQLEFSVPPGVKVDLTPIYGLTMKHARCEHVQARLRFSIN
pIC50: −log10 of the molar value.
Property: pIC50; scope: individual compounds

Enquiry: Which pIC50 reading was recorded for the compound O=C(Nc1ccc(Oc2ccc(F)cc2)cc1)N1CCc2ncccc2[C@@H]1c1ccc(Cl)cc1 ?
Return: < 4.70

Continuing:
Enquiry: // pIC50 lookup, key: O=C(Nc1cnc(Oc2ccc(F)cc2)nc1)N1CCc2ncccc2[C@@H]1c1ccc(F)cc1
Return: < 4.70

###

measurement description: Plasma concentration in female rat at 4.5 to 72 mg/kg, po administered once daily for 8 days and measured on day 8
Assay type: ADME, organism-based
measured property: concentration at 192 h

Enquiry: Suppose we examine the molecule O=C(Nc1ccc(Oc2ccc(F)cc2)cc1)N1CCc2ncccc2[C@@H]1c1ccc(Cl)cc1 ; what concentration at 192 h value has been reported?
Return: 4 to 39 µM

###

experimental system: Lutropin-choriogonadotropic hormone receptor (Homo sapiens)
Sequence (P22888 whole entry): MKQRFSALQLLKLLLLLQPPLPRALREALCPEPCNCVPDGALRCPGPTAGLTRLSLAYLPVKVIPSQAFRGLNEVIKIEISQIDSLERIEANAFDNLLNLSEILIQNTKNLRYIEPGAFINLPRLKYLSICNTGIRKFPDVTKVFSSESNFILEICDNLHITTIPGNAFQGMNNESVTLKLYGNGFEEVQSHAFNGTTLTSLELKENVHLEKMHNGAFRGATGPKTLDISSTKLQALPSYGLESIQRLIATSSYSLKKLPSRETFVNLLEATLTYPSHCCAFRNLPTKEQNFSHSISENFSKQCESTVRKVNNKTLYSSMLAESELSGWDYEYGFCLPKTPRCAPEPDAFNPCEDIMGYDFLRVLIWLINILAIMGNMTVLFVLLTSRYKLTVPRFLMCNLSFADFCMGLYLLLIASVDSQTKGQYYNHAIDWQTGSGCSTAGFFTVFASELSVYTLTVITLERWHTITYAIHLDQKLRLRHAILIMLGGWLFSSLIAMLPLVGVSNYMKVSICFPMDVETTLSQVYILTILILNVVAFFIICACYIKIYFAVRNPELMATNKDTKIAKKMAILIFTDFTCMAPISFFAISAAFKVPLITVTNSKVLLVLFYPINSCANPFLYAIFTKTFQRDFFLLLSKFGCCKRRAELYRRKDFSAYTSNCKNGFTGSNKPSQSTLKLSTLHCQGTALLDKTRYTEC
measurement description: Negative allosteric modulation of human luteinizing hormone receptor assessed as reduction in glycoprotein human luteinizing hormone-induced agonist activity preincubated for 20 mins followed by 4 times EC80 of agonist addition and measured after 60 mins by cell based TR-FRET assay relative to control
measured property: IC50 (nM)
Write the value in nM as a bare number.

Enquiry: IC50 for O=C(Nc1ccc(Oc2ccc(F)cc2)cc1)N1CCc2ncccc2[C@@H]1c1ccc(Cl)cc1 ?
Return: 200

###

experimental system: UniProtKB P22888
measurement description: Agonist activity at human luteinizing hormone receptor incubated for 60 mins by cell based TR-FRET assay
measured property: EC50

Enquiry: # value lookup — system UniProtKB P22888, readout EC50, item O=C(Nc1ccc(Oc2ccc(F)cc2)cc1)N1CCc2ncccc2[C@@H]1c1ccc(Cl)cc1
Return: > 16 µM

###

experimental system: Thyrotropin receptor (Homo sapiens, UniProt P16473)
Sequence (P16473 whole entry): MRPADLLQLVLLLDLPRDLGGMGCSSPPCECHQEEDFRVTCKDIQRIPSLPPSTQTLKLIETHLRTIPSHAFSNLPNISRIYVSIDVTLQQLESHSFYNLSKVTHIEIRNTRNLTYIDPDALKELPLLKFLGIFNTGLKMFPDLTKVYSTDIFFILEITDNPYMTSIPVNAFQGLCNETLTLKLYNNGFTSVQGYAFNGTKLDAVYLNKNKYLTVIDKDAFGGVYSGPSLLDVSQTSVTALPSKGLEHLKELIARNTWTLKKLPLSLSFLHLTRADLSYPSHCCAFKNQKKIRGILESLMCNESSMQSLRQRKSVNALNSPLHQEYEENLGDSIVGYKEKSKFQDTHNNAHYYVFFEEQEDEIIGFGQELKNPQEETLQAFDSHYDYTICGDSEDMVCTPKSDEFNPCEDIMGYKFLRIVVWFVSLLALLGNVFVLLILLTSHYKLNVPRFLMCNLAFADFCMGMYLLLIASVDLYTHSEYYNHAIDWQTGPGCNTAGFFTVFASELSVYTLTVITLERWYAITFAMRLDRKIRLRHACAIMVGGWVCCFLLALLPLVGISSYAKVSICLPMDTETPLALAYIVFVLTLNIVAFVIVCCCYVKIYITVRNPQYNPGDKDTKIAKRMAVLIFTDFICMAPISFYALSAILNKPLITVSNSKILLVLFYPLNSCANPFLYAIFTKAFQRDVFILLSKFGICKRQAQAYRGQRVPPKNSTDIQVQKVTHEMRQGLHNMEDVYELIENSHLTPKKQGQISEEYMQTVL
measurement description: Antagonist activity at human thyroid stimulating hormone receptor expressed in rat HTC133 cells assessed as reduction in agonist-induced cAMP production preincubated for 20 mins followed by agonist solution addition and measured after 60 mins by cell based TR-FRET assay
measured property: IC50 (µM)

[A] O=C(Nc1cnc(Oc2ccc(F)cc2)nc1)N1CCc2ncccc2[C@@H]1c1ccc(F)cc1 [BAY-899]
[B] O=C(Nc1ccc(Oc2ccc(F)cc2)cc1)N1CCc2ncccc2[C@@H]1c1ccc(Cl)cc1
Enquiry: Please tell me which of the two, A or B , has the higher reported IC50 value. Answer with the label corresponding to your selection.
Return: A

###

experimental system: Lutropin-choriogonadotropic hormone receptor (Rattus norvegicus)
Sequence (P16235 whole entry): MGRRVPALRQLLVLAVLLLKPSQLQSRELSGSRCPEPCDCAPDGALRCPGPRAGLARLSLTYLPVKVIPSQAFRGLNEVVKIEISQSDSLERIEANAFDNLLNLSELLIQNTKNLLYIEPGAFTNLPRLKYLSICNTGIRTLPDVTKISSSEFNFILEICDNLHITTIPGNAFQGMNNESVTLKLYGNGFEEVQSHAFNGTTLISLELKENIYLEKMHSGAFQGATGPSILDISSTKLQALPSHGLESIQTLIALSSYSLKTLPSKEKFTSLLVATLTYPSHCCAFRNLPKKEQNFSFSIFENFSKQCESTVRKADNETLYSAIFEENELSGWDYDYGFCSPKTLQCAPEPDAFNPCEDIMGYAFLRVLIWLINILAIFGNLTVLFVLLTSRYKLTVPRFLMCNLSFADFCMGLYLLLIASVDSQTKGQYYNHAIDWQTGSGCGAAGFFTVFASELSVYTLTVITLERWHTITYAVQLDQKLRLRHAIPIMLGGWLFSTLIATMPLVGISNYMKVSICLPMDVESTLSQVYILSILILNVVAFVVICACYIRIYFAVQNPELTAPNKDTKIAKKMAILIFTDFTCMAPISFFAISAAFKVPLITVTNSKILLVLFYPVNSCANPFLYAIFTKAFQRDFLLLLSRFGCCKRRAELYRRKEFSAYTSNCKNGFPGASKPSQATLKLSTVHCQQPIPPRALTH
measurement description: Antagonist activity at rat luteinizing hormone receptor expressed in rat ovary granulosa GLHR15 cell suspension assessed as reduction in agonist-induced cAMP production preincubated for 30 mins followed by agonist solution addition after 30 mins by cell based TR-FRET assay
measured property: IC50 (nM)

Enquiry: Quick one: IC50 of COc1ccc([C@H]2c3ccsc3CCN2C(=O)Nc2cc(Cl)cc(Cl)c2)cc1 ?
Return: 412

[I] O=C(Nc1cnc(Oc2ccc(F)cc2)nc1)N1CCc2ncccc2[C@@H]1c1ccc(F)cc1
[II] O=C(Nc1ccc(Oc2ccc(F)cc2)cc1)N1CCc2ncccc2[C@@H]1c1ccc(Cl)cc1
Enquiry: I'm curious whether I or II has the smaller IC50 number. Which is it? Your choice should be expressed through its label.
Return: II
(II: 23 nM, I: 46 nM)

[A] COc1ccc(C2c3ccsc3CCN2C(=O)Nc2cc(Cl)cc(Cl)c2)cc1 (racemic)
[B] COc1ccc([C@@H]2c3ccsc3CCN2C(=O)Nc2cc(Cl)cc(Cl)c2)cc1
Enquiry: Looking at recorded values for IC50, does A or B come in lower? Select an item and report its label.
Return: A

###

measurement description: Efflux ratio of apparent permeability from basolateral to apical over apical to basolateral side in human Caco2 cells at 2 uM after 2 hrs by LC-MS/MS analysis
Type: ADME, cell-based
cond: Caco-2
measured property: efflux ratio at 2 h, 2 µM

Enquiry: Which efflux ratio at 2 h, 2 µM value is on record for O=C(Nc1cnc(Oc2ccc(F)cc2)nc1)N1CCc2ncccc2[C@@H]1c1ccc(F)cc1 ?
Return: 1.1

Enquiry: efflux ratio at 2 h, 2 µM for O=C(Nc1ccc(Oc2ccc(F)cc2)cc1)N1CCc2ncccc2[C@@H]1c1ccc(Cl)cc1 ?
Return: 1.3

###

measurement description: Clearance in human liver microsomes at 1 uM measured after 2 to 60 mins in presence of glucose-6-phosphate by LC-MS/MS analysis
Type: ADME, Microsome
measured property: CLhep predicted at 1 µM (mL/min/kg)

Example cases with answers are listed next.
Enquiry: Item O=C(Nc1cnc(Oc2ccc(F)cc2)nc1)N1CCc2ncccc2[C@@H]1c1ccc(F)cc1 has what recorded CLhep predicted at 1 µM?
Return: 1.67

Enquiry: # query: CLhep predicted at 1 µM of entry O=C(Nc1cc(Cl)cc(Cl)c1)N1CCc2sccc2C1c1ccc(C(F)(F)F)cc1 (racemic)
Return: 11.7

Enquiry: May I ask what CLhep predicted at 1 µM has been recorded for COc1ccc(C2c3ccsc3CCN2C(=O)Nc2ccc(Cl)cc2)cc1 (racemic) ?
Return: 18.3

Enquiry: # input compound: COc1ccc(C2c3ccsc3CCN2C(=O)Nc2cccc(Cl)c2)cc1 (racemic) ; wanted: its CLhep predicted at 1 µM
Return: 20

Enquiry: Which measured CLhep predicted at 1 µM value corresponds to O=C(Nc1cc(Cl)cc(Cl)c1)N1CCc2sccc2C1c1ccc(Cl)cc1 (racemic) ?
Return: 11.7

[P] O=C(Nc1cc(Cl)cc(Cl)c1)N1CCc2sccc2C1c1ccc(F)c(F)c1 (racemic)
[Q] O=C(Nc1ccc(Oc2ccc(F)cc2)cc1)N1CCc2ncccc2[C@@H]1c1ccc(Cl)cc1
Enquiry: Between P and Q , which one has the lower reported CLhep predicted at 1 µM value? Identify your pick by its label.
Return: Q
(Q: 3.33 mL/min/kg, P: 13.3 mL/min/kg)

###

experimental system: UniProt:P22888
measurement description: Negative allosteric modulation of human luteinizing hormone receptor assessed as reduction in glycoprotein human luteinizing hormone-induced agonist activity preincubated for 20 mins followed by 16 times EC80 of agonist addition and measured after 60 mins by cell based TR-FRET assay relative to control
measured property: pIC50
Scale: negative log10 of molar concentration, which is what pIC50 denotes.

Enquiry: Under UniProt:P22888: pIC50 value of O=C(Nc1ccc(Oc2ccc(F)cc2)cc1)N1CCc2ncccc2[C@@H]1c1ccc(Cl)cc1 ?
Return: 5.66
